Where do the numbers come from? From patent US20260365670A1.

Catalogue of IC50 readings, one per entry.
molecular target: EGFR (d746-750 C797S) (Homo sapiens, UniProt P00533, C797S/DEL746-750); construct: purchased signalchem; test: Inhibition of EGFR (d746-750 C797S) biochemical enzymatic activity (HTRF); settings: EGFR Del19-C797S, 1 mM ATP, 1 h, room temperature, read-out: IC50 (nM) @Del19-C797S
Sequence (P00533 with tags, fused parts or gaps DEL746-750/C797S limits assumed): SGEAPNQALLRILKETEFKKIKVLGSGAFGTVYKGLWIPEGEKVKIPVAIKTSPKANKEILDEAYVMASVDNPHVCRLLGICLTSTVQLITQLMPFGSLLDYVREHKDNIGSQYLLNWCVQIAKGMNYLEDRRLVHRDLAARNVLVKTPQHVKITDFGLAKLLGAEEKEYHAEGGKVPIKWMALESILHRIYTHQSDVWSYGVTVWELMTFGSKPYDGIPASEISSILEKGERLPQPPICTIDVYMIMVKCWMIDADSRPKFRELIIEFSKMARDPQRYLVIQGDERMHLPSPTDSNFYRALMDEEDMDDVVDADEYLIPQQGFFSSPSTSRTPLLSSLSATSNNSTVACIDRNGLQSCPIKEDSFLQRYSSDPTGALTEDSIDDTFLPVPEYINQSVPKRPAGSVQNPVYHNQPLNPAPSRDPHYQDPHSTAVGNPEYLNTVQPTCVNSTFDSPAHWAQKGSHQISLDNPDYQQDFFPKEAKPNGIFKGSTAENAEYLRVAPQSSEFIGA
// return numeric value only (unit: nM, not printed)

Solved entries (count: 2):
C[C@@H]1CCCOc2c(cnn2C)-c2cc(cn(C)c2=O)C(=O)Nc2nc3ccc(N4CCN(C)CC4)c(Cl)c3n2C1 :: 2.3
CN1CCOC2(C1)CN(c1ccc3nc4n(c3c1)C13CCC(CN(CCOc5c(cnn5C)-c5cc(cn(C)c5=O)C(=O)N4)C1)C3)C2 (single isomer, unassigned) [Example A86A] :: 599

Q: Item CCN1CCOc2c(cnn2C)-c2cc(cn(C)c2=O)C(=O)Nc2nc3ccccc3n2C(C)C1 (stereo not drawn) : provide IC50
A: 1870

* * *

Molecular target: EGFR (C797S L858R) (Homo sapiens, UniProt P00533, C797S/L858R)
Construct: purchased signalchem
Sequence (P00533 25-1210 C797S/L858R): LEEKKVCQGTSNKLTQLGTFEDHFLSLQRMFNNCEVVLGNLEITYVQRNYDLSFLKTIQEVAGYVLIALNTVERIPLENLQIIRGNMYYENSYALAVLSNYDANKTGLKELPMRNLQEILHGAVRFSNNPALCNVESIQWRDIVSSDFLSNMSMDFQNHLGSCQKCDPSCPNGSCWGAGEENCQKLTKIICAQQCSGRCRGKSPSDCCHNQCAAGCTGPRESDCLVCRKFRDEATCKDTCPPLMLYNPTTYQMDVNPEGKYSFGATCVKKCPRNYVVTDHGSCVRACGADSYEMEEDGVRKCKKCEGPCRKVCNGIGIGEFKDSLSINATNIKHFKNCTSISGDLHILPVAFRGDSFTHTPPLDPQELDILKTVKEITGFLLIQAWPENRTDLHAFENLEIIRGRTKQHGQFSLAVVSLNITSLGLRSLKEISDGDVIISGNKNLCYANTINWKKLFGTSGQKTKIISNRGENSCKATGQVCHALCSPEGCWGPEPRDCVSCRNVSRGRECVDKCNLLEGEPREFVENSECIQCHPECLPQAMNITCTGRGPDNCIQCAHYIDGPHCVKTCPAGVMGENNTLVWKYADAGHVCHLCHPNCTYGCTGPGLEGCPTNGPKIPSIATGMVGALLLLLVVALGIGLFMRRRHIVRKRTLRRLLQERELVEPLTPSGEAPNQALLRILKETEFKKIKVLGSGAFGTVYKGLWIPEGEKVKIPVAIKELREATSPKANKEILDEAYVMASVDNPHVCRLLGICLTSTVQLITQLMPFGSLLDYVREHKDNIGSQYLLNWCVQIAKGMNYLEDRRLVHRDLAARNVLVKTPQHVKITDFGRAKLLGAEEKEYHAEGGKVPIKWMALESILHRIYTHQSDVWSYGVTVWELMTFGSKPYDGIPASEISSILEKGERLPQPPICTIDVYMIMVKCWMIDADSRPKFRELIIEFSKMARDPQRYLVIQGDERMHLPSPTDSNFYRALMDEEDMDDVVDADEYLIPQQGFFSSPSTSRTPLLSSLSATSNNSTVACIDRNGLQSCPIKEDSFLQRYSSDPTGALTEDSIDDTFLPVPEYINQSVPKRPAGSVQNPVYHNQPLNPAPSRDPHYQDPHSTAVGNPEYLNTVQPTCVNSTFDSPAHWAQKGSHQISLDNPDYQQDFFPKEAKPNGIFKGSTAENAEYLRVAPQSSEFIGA
Experiment: Inhibition of EGFR (C797S L858R) biochemical enzymatic activity (HTRF)
Conditions: EGFR (C797S L858R), 1 mM ATP, 1 h at room temperature, read-out: IC50 @L858-C797S
Protocol: Biological Example 1: Inhibition of EGFR WT and Mutant Biochemical Enzymatic Activity The inhibition potency of compounds against these enzymes was assessed using Homogenous Time Resolved Fluorescence approach (HTRF, CisBio. Cat No. 62TKOPEJ). Inhibitory effects of the compounds were determined by measuring the enzymatic activity of EGFR enzyme phosphorylates 1 μM TK Substrate-biotin in the presence of 1 mM adenosine-5′-triphosphate (ATP) and varying concentrations of the test compound. […]
readout type: pIC50
Entry type: numeric. Quantity: pIC50, the -log10 of concentration in molar units.

Solved entries (count: 4):
Cc1cc2cc(n1)-c1cnn(C)c1OCCN1CC3CCC(C3)(C1)n1c(nc3ccc(N4CCOCC4)cc31)NC2=O (single isomer, unassigned) [Example B10A] :: 7.23
Cc1cc2cc(n1)-c1cnn(C)c1OCCN1CC3CCC(C3)(C1)n1c(nc3ccc(N4CCN(C(C)C)CC4)cc31)NC2=O (single isomer, unassigned) [Example B57B] :: 8.22
Cc1cc2cc(n1)-c1cnn(C)c1OCCN1CC3CCC(CC3)(C1)n1c(nc3ccc(N(C)CCCN(C)C)cc31)NC2=O [Example B33] :: 6.88
COCCN(C)c1ccc2nc3n(c2c1)C12CCC(CN(CCOc4c(cnn4C)-c4cc(cc(C)n4)C(=O)N3)C1)C2 (single isomer, unassigned) [Example B46B] :: 6.93

Continue with the next compound.
Q: Item Cc1cc2cc(n1)-c1cnn(C)c1OCCN1CC3CCC(C3)(C1)n1c(nc3ccc(N4CC(N5CCOCC5)C4)cc31)NC2=O (single isomer, unassigned) [Example B48B] : provide pIC50
A: 7.36

* * *

Catalogue of log10 GI50 readings, one per entry.
system: Ba/F3 cells expressing EGFR mutations; test: Cell proliferation assay, Ba/F3 cells expressing EGFR mutations (CellTiter-Glo, 72 hours); assay type: cell-based; conditions: BaF3 cells, EGFR L858R-T790M, CellTiter-Glo, read-out: L858R-T790M/BaF3 GI50
Kindly note that the scale is log10 and the underlying GI50 is in nM.

Solved entries (count: 2):
Cn1ncc2c1OCCN1CC3CCC(C3)(C1)n1c(nc3ccc(N4CCC(N5CCOCC5)C4)cc31)NC(=O)c1cc-2c(=O)n(C)c1 (single isomer, unassigned) [Example A104A] :: 3.00
CN1CCN(C2CCN(c3ccc4nc5n(c4c3)C34CCC(CN(CCOc6c(cnn6C)-c6cc(cn(C)c6=O)C(=O)N5)C3)C4)C2)CC1 (single isomer, unassigned) [Example A80B] :: 0.43

Q: Write down the reported log10 GI50 (system: Ba/F3 cells expressing EGFR mutations) of CN1CCN(c2ccc3c(c2)nc2n3C34CCC(CN(CCOc5c(cnn5C)-c5cc(cn(C)c5=O)C(=O)N2)C3)C4)CC1 (centres unmarked) [Example A60B]
A: 1.72

Q: Write down the reported log10 GI50 (system: Ba/F3 cells expressing EGFR mutations) of CN(C)CC1(F)CN(c2ccc3nc4n(c3c2)C23CCC(CN(CCOc5c(cnn5C)-c5cc(cn(C)c5=O)C(=O)N4)C2)C3)C1 (single isomer, unassigned) [Example A72B]
A: 0.20

* * *

Catalogue of pIC50 readings, one per entry.
target: EGFR L858R (Homo sapiens, UniProt P00533, L858R); construct: purchased Carna Bio; assay: Inhibition of EGFR L858R biochemical enzymatic activity (HTRF); details: 1 mM ATP, 1 h at room temperature, read-out: IC50 @L858R
Sequence (P00533 25-1210 L858R): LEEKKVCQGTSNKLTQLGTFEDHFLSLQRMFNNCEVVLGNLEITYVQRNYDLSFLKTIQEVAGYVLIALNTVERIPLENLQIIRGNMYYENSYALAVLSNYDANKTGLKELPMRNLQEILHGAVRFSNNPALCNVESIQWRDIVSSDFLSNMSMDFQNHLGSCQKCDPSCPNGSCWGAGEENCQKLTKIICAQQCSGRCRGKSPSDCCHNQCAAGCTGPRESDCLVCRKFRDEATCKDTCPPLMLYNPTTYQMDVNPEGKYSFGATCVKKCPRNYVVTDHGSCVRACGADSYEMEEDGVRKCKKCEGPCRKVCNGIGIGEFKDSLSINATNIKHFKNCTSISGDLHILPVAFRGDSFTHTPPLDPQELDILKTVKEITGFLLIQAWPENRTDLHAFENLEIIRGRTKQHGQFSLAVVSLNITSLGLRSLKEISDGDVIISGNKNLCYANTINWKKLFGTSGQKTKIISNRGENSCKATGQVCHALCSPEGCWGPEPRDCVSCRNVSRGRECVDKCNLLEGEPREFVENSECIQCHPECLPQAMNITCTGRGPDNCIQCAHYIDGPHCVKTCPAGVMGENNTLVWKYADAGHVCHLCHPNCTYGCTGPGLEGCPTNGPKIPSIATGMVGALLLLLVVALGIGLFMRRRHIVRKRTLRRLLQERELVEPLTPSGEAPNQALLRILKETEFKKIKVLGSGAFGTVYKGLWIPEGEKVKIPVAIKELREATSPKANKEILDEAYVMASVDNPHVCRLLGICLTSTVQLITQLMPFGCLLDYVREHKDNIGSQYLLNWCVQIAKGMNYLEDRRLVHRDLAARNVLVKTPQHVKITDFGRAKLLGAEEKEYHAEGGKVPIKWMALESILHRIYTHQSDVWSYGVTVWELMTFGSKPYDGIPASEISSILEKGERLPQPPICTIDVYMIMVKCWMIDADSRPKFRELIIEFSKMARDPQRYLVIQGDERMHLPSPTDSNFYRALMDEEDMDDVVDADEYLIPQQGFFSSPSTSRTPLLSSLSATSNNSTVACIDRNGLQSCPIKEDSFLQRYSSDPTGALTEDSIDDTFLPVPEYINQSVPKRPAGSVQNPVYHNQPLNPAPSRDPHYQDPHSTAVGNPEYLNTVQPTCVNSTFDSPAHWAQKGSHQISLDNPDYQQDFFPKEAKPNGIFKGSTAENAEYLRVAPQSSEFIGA
Entry type: numeric. Quantity: pIC50, the -log10 of concentration in molar units.

Solved entries (count: 2):
Cc1cc2cc(n1)-c1cnn(C)c1OCCN1CC3CCC(C3)(C1)n1c(nc3ccc(N4CC5CC4CN5C)cc31)NC2=O (single isomer, unassigned) [Example B53B] :: 7.28
Cc1cc2cc(n1)-c1cnn(C)c1OCCN1CC3CCC(CC3)(C1)n1c(nc3ccc(N4CCC5(CC4)CCN5C)cc31)NC2=O [Example B30] :: 6.96

Continue with the next compound.
Q: Write down the reported pIC50 (system: EGFR L858R (Homo sapiens, UniProt P00533, L858R)) of Cc1cc2cc(n1)-c1cnn(C)c1OCCN1CC3CCC(C3)(C1)n1c(nc3ccc(N4CCN(C(C)C)CC4)cc31)NC2=O (single isomer, unassigned) [Example B57B]
A: 7.51

* * *

molecular target: EGFR L858R (Homo sapiens, UniProt P00533, L858R); construct: purchased Carna Bio; assay: Inhibition of EGFR L858R biochemical enzymatic activity (HTRF); settings: 1 mM ATP, 1 h, room temperature, read-out: IC50 (nM) @L858R
readout type: IC50 (nM)
// return numeric value only (unit: nM, not printed)

Solved entries (count: 4):
CN(C)C1CCN(c2ccc3nc4n(c3c2)C23CCC(CN(CCOc5c(cnn5C)-c5cc(cn(C)c5=O)C(=O)N4)C2)C3)CC1 (single isomer, unassigned) [Example A64B] :: 2
CN(C)C1CN(c2ccc3nc4n(c3c2)C23CCC(CN(CCOc5c(cnn5C)-c5cc(cn(C)c5=O)C(=O)N4)C2)C3)CC1F (single isomer, unassigned) [Example A84D] :: 21
Cc1cc2cc(n1)-c1cnn(C3CC3)c1OCCN(CC(F)(F)F)CCn1c(nc3ccccc31)NC2=O [Example B6] :: 1090
C[C@@H]1CCCOc2c(cnn2C)-c2cc(cn(C)c2=O)C(=O)Nc2nc3ccc(N4CCC5(CCN(C)C5)CC4)cc3n2C1 [Example A35] :: 1.5

Continue with the next compound.
Q: Item C[C@@H]1CCCOc2c(cnn2C)-c2cc(cn(C)c2=O)C(=O)Nc2nc3ccc(N4CCC(N5CCN(C)CC5)CC4)cc3n2C1 [Example A29] : provide IC50
A: 14

* * *

tested on: A-431; assay: Cell proliferation GI50, A-431 cells (Table 6); format: cell-based; settings: A-431 cells
Values of GI50 strictly less than 2 µM map to 1, and values of at least 2 µM map to -1.

Some solved entries appear below for comparison.
CN1CCCC12CN(c1ccc3nc4n(c3c1)C13CCC(CN(CCOc5c(cnn5C)-c5cc(cn(C)c5=O)C(=O)N4)C1)C3)C2 (single isomer, unassigned) [Example A76B] :: 1
Cn1ncc2c1OCCN1CC3CCC(C3)(C1)n1c(nc3ccc(N4CCC(N5CC(F)C5)CC4)cc31)NC(=O)c1cc-2c(=O)n(C)c1 (single isomer, unassigned) [Example A87B] :: -1
Cn1ncc2c1OCCN1CC3CCC(C3)(C1)n1c(nc3ccc(N4CCC(N5CC(F)C5)C4)cc31)NC(=O)c1cc-2c(=O)n(C)c1 (single isomer, unassigned) [Example A94B] :: -1
CN1CC2(C1)CN(c1ccc3nc4n(c3c1)C13CCC(CN(CCOc5c(cnn5C)-c5cc(cn(C)c5=O)C(=O)N4)C1)C3)C2 (single isomer, unassigned) [Example A92B] :: 1
CN1CCN(c2ccc3nc4n(c3c2)C23CCC(CN(CCOc5c(cnn5C)-c5cc(cn(C)c5=O)C(=O)N4)C2)C3)CC1 (single isomer, unassigned) [Example A63A] :: -1

Q: Say whether its GI50 is strictly beneath 2 µM. Entry: Cn1ncc2c1OCCN1CC3CCC(C3)(C1)n1c(nc3ccc(N4CCC(N5CC(F)C5)CC4)cc31)NC(=O)c1cc-2c(=O)n(C)c1 (single isomer, unassigned) [Example A87A]
A: 1

Q: Say whether its GI50 is strictly beneath 2 µM. Entry: CN1CCN(c2ccc3nc4n(c3c2)C23CCC(CN(CCOc5c(cnn5C)-c5cc(cn(C)c5=O)C(=O)N4)C2)C3)CC1 (single isomer, unassigned) [Example A63B]
A: 1

Q: Say whether its GI50 is strictly beneath 2 µM. Entry: Cn1ncc2c1OCCN1CC3CCC(C3)(C1)n1c(nc3ccc(N4CCC(N5CC(F)C5)C4)cc31)NC(=O)c1cc-2c(=O)n(C)c1 (single isomer, unassigned) [Example A94A1]
A: -1

Q: Say whether its GI50 is strictly beneath 2 µM. Entry: Cn1ncc2c1OCCN1CC3CCC(C3)(C1)n1c(nc3ccc(N4CCC(N5CC(F)C5)C4)cc31)NC(=O)c1cc-2c(=O)n(C)c1 (single isomer, unassigned) [Example A94A2]
A: 1
